- assay.target: human P2X3 receptor (Homo sapiens (Human), UniProt P56373)
- Sequence (P56373 whole entry): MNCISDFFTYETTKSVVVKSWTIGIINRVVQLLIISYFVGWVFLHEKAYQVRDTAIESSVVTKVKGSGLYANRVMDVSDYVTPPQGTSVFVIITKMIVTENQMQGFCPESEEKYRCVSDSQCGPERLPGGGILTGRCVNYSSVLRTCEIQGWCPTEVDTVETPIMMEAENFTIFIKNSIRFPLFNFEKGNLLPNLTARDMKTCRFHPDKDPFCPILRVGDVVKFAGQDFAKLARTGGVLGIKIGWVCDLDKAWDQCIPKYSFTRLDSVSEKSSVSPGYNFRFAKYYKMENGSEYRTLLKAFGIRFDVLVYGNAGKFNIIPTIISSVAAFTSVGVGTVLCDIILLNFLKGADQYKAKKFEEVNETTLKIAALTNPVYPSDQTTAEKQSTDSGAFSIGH
- experiment.notes: Evaluation of human P2X3 receptor inhibitory activity (Fluo-3 calcium fluorescence, FDSS 3000, ATP stimulation)
- Type: cell-based
- condition.set: C6BU-1 cells stably expressing human P2X3 receptor
pIC50: −log10 of the molar value.
Heads up, the class ranges for pIC50 are lower range = under 7, middle range = from 7 up to 8, upper range = 8 and over

| test.smiles | class.assignment |
| --- | --- |
| CCOC(=O)CCn1c(=O)[nH]/c(=N\c2ccc(OC(C)C)c(C3CC3)c2)n(Cc2ccc(C)cc2)c1=O | middle range |
| CC[C@@H](CC(=O)O)n1c(=O)[nH]/c(=N\c2ccc(OC(C)C)c(C)c2)n(Cc2ccc(Cl)cc2)c1=O | lower range |
| CCOC(=O)CCn1c(=O)[nH]/c(=N\c2ccc(Oc3cccc(F)c3)cc2)n(Cc2ccc(Cl)cc2)c1=O | middle range |
| COC(=O)[C@@H](C)Cn1c(=O)[nH]/c(=N\c2ccc(Oc3ccnc(O)c3)cc2)n(Cc2ccc(C)cc2)c1=O | upper range |
| COC(=O)[C@@H](C)Cn1c(=O)[nH]/c(=N\c2ccc(Br)c(OC)c2)n(Cc2ccc(C)cc2)c1=O | lower range |
| CCOC(=O)CCn1c(=O)[nH]/c(=N\c2ccc(OC3CCC3)cc2)n(Cc2ccc(C)cc2)c1=O | upper range |
| CC(C)Oc1ccc(/N=c2\[nH]c(=O)n(CCS(=O)(=O)O)c(=O)n2Cc2ccc(Cl)cc2)cc1F | middle range |
| CCOC(=O)COc1ccc(/N=c2\[nH]c(=O)n(CC)c(=O)n2Cc2ccc(Cl)cc2)cc1 | lower range |
| C[C@H](C(=O)O)[C@@H](C)n1c(=O)[nH]/c(=N\c2ccc(N3CCCCC3)cc2)n(Cc2ccc(Cl)cc2)c1=O | middle range |
| COc1ccc(CN2C(=O)CC[C@H]2Cn2c(=O)[nH]/c(=N\c3ccc(OC(C)C)c(F)c3)n(Cc3ccc(Cl)cc3)c2=O)cc1 | middle range |
| CC(C)Oc1ccc(/N=c2\[nH]c(OCC(=O)NC(CO)CO)nc(=O)n2Cc2ccc(Cl)cc2)cc1F | lower range |
| CCc1cc(/N=c2\[nH]c(=O)n(CCC(=O)O)c(=O)n2Cc2ccc(C)cc2)ccc1OC(C)C | middle range |
| CC(C)OCc1ccc(/N=c2\[nH]c(=O)n(C[C@H](C)C(=O)O)c(=O)n2Cc2ccc(Cl)cc2)cc1 | lower range |
| CCc1nc2ccc(/N=c3\[nH]c(=O)n(CCCCC(=O)OC)c(=O)n3Cc3ccc(Cl)cc3)cc2s1 | upper range |
| C[C@@H](Oc1ccc(/N=c2\[nH]c(=O)n(CCC(N)=O)c(=O)n2Cc2ccc(Cl)cc2)cc1)C(F)(F)F | middle range |

----------
Known IC50 of a selection of compounds
- assay.target: human P2X3 receptor (Homo sapiens (Human), UniProt P56373)
- experiment.notes: Evaluation of human P2X3 receptor inhibitory activity (Fluo-3 calcium fluorescence, FDSS 3000, ATP stimulation);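 also: stimulus was 50 nM ATP with fluorescence followed for 3 min, and the response per well was peak post-ATP fluorescence divided by the reading at measurement start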
- Assay type: cell-based
- condition.set: human P2X3 receptor, Test Example 1

| compound | IC50 (µM) |
| --- | --- |
| COC(=O)[C@@H](C)Cn1c(=O)[nH]/c(=N\c2ccc(OCC3CC3)cc2)n(Cc2ccc(Cl)cc2)c1=O [Compound I-0833] | 0.015 |
| O=C(O)c1cc(Oc2ccc(/N=c3\[nH]c(=O)n(CC(F)F)c(=O)n3Cc3ccc(Cl)cc3)cc2)ccn1 [Compound I-2248] | 0.007 |
| CCn1c(=O)[nH]/c(=N\c2ccc(Oc3ccnc(C(=O)O)c3)c(F)c2)n(Cc2ccc(Cl)cc2)c1=O [Compound I-2462] | 0.007 |
| CCn1c(=O)[nH]/c(=N\c2ccc(Oc3nccc(C(=O)O)n3)cc2)n(Cc2ccc(Cl)cc2)c1=O [Compound I-2319] | 0.017 |
| CC(CO)(CO)Cn1c(=O)[nH]/c(=N\c2ccc(Oc3nccs3)cc2)n(Cc2ccc(F)cc2)c1=O [Compound I-2508] | 0.013 |
| CCn1c(=O)[nH]/c(=N\c2cccc(Oc3cccc(C(=O)O)n3)c2)n(Cc2ccc(Cl)cc2)c1=O [Compound I-2592] | 0.35 |
| Cc1ccc(Cn2c(=O)n(CCC(=O)O)c(=O)[nH]/c2=N\c2ccc3nc(C)sc3c2)cc1 [Compound I-1521] | 0.022 |
| Cc1cc(/N=c2\[nH]c(=O)n([C@H]3CC[C@@H](C(=O)O)CC3)c(=O)n2Cc2ccc(Cl)cc2)ccc1OC(C)C [Compound I-0851] | 0.024 |
